Test Target: TRPA1 (Homo sapiens)
Construct: cultured human airway cells, including fibroblasts, epithelial and smooth muscle cells express functional TRPA1 channels; endogenous in cells; host or cells: SAEC, NHLF, HBSMC (Lonza, primary); A549, IMR90 (ATCC)
Sequence (O75762 whole entry): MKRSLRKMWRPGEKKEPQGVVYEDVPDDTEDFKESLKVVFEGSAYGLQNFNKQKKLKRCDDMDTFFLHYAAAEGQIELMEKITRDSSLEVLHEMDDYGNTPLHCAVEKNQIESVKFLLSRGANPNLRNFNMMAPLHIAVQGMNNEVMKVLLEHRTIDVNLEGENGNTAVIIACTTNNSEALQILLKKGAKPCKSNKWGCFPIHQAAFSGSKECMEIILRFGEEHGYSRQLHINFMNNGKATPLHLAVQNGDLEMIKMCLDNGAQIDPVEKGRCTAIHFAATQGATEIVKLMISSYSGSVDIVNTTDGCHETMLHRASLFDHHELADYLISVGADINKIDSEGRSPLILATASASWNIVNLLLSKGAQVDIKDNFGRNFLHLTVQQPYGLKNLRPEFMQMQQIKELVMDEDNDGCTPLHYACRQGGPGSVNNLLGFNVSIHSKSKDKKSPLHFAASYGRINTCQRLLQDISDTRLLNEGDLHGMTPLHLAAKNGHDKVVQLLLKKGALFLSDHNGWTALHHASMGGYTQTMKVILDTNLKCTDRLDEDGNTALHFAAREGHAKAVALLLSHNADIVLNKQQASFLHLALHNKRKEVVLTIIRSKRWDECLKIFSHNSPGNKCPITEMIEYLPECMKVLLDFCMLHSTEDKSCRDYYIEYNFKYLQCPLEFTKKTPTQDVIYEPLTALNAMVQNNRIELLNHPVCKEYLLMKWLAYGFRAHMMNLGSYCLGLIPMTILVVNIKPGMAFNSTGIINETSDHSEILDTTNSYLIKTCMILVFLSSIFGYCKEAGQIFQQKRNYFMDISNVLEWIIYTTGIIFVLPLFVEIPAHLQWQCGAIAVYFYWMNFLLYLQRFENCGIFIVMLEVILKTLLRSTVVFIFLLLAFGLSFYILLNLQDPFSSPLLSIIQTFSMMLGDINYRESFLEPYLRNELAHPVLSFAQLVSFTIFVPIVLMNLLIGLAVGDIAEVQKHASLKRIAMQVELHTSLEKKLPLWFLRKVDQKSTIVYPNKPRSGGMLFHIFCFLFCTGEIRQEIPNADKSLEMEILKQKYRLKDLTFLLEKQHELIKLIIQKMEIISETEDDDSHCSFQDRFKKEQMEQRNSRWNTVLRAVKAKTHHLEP
Experiment: Calcium imaging (Fura-2) of TRPA1 agonist responses in human airway/lung cells
Format: cell-based
Test Settings: SAEC; intracellular calcium response
Listed compounds paired with reported EC50
Observed Property: EC50

> print(dat)
                                   compound  observed.property  experimental.value
1               C=CC=O [Acrolein, acrolein]               EC50             56.9 µM
2  O=C/C=C/c1ccccc1 [Cinnamaldehyde, cinnamaldehyde]               EC50             46.3 µM
